B1: Floral homeotic protein … (Arabidopsis thaliana (Mouse-ear cress)), P48007 (parent)
chain: MGRGKIEIKRIENANNRVVTFSKRRNGLVKKAKEITVLCDAKVALIIFASNGKMIDYCCPSMDLGAMLDQYQKLSGKKLWDAKHENLSNEIDRIKKENDSLQLELRHLKGEDIQSLNLKNLMAVEHAIEHGLDKVRDHQMEILISKRRNEKMMAEEQRQLTFQLQQQEMAIASNARGMMMRDHDGQFGYRVQPIQPNLQEKIMSLVID

- Variants of: B1
- measurement-setup: with sep3_arath SEP3, O22456
- Sequence (O22456 whole entry): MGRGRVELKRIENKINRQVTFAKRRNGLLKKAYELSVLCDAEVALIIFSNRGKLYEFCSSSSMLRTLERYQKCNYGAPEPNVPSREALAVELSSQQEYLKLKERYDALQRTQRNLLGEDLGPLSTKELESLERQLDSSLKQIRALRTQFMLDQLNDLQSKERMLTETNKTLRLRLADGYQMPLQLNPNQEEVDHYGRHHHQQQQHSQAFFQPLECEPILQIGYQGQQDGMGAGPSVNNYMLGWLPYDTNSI
test-readout: effect of a mutation on the interaction

A selection of reference data follows.
G177P increasing interaction
S145P decreasing interaction
G110P decreasing interaction
L132P decreasing interaction
G131P decreasing interaction

Please supply effect of a mutation on the interaction for each of the following items, keeping them in order.
1. L87P
2. I142P
3. L103P
4. M153P
5. L116P
6. Q102P
7. A154P

Outgoing:
1. decreasing interaction
2. decreasing interaction
3. decreasing interaction
4. decreasing interaction
5. decreasing interaction
6. decreasing interaction
7. decreasing interaction

Hello, I would appreciate it if you could give effect of a mutation on the interaction for each entry below.
1. Q167P
2. L160P
3. N149P

Outgoing:
increasing interaction
increasing interaction
increasing interaction
